Here we gather pIC50 data for Coagulation factor X (Homo sapiens) reported by several publications.
pIC50: −log10 of the molar value.
experimental-endpoint: pIC50

molecule="CCOC(=O)C12CN(S(=O)(=O)c3ccc4cc(Cl)ccc4c3)CC(=O)N1CC1(CCN(c3ccncc3)CC1)O2 (centres unmarked)" experimental_endpoint=pIC50 relation_qualifier== test_value=8.82
molecule=CCn1c(Cn2c(=O)[nH]c3ccc(OC4CCN(C(=N)N)CC4)cc32)cc2ccc(C(=N)N)cc21 experimental_endpoint=pIC50 relation_qualifier== test_value=5.75
molecule=O=C(Nc1ccc(Cl)cc1)c1nccnc1C(=O)Nc1ccc(N2CCOCC2=O)cc1 experimental_endpoint=pIC50 relation_qualifier== test_value=9.31
molecule=CC(C)Nc1ncc(-c2cc(N)cc(C(N)=O)c2)n(CC(=O)NCc2ccc(C(=N)N)cc2)c1=O experimental_endpoint=pIC50 relation_qualifier=< test_value=4.52
molecule=CC(C)C[C@@H](NC(=O)c1ccc(Cl)s1)C(=O)Nc1ccc(-n2ccncc2=O)cc1 experimental_endpoint=pIC50 relation_qualifier== test_value=7.41
molecule=CS(=O)(=O)C[C@H](NC(=O)Nc1ccc(Cl)cc1)C(=O)Nc1ccc(-n2ccccc2=O)cc1 experimental_endpoint=pIC50 relation_qualifier== test_value=8.19
molecule=O=C(Nc1ccc(N2CCOCC2=O)cc1)[C@H]1COCN1C(=O)Nc1ccc(Cl)cc1 experimental_endpoint=pIC50 relation_qualifier== test_value=7.57
